# experimental_system: human ether-à-go-go-related gene (hERG) potassium channel (human, UniProt Q12809);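 further: peak tail current of the secondary pulse compared with the same well before compound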
# Sequence (Q12809 whole entry, looked up): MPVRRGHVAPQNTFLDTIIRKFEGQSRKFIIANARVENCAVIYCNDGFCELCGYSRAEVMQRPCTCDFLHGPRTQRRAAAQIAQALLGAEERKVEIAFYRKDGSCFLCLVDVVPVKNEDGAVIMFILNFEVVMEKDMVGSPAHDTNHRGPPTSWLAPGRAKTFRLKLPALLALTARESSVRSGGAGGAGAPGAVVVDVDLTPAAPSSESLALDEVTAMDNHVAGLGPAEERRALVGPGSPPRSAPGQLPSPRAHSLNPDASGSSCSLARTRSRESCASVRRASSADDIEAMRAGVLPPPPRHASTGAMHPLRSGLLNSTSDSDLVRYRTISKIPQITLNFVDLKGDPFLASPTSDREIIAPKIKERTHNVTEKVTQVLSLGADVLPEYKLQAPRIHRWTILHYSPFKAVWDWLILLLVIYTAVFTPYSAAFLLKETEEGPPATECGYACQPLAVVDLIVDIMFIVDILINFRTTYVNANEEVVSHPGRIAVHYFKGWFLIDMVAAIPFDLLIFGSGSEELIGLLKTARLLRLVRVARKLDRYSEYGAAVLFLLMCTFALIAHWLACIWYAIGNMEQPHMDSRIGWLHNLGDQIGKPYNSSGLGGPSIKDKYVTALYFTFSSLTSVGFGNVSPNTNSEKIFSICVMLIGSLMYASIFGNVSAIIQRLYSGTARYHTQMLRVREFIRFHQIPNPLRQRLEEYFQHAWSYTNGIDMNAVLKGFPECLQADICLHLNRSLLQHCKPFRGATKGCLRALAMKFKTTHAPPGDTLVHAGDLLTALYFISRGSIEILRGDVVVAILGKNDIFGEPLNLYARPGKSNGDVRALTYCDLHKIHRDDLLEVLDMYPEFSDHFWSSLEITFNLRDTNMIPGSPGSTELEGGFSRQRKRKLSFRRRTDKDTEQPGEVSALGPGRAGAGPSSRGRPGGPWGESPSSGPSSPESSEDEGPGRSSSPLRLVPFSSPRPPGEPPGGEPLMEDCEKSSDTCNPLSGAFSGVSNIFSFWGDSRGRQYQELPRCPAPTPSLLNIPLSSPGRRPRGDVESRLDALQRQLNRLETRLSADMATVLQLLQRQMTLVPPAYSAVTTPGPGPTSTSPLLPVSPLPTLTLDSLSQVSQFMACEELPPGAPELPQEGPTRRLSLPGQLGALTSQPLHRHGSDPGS
# assay_remarks: primary screen, population patch clamp on CHO cells stably expressing hERG; higher = less effect of the substance
In all, about 310,000 compounds went through this assay and about 14,000 (4.5%) showed an effect of 50% or more. Effects have a minus sign here. Only a selection was taken, and strong results are over-represented in it overall.
measurement_label: hERG current change (%, negative = inhibition) at 10uM (%)
Give bare numbers, in %.

Field: example entries. Status: answers known.
COc1ccc(N2CCN(c3nc(Cl)nc(Nc4ccc(F)cc4)n3)CC2)cc1 ... 7.8
FC(F)(F)c1cccc(Nc2nc(N3CCOCC3)nc(N3CCOCC3)n2)c1 ... 15.6
Cl.Fc1ccc(Nc2nc(N3CCOCC3)nc(N3CCOCC3)n2)cc1 ... 4.26

Give one value of hERG current change (%, negative = inhibition) at 10uM per listed compound.
1. CN1CCN(c2nc(Nc3cccc(C(F)(F)F)c3)nc(N3CCOCC3)n2)CC1
2. FC(F)(F)c1cccc(Nc2nc(N3CCCC3)nc(N3CCCC3)n2)c1

[-60, 23.7]

---

# experimental_system: human ether-à-go-go-related gene (hERG) potassium channel (human, UniProt Q12809);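 further: peak tail current of the secondary pulse compared with the same well before compound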
# assay_remarks: primary screen, population patch clamp on CHO cells stably expressing hERG; higher = less effect of the substance
About 14,000 (4.5%) of roughly 310,000 compounds showed an effect of 50% or more. The effect is printed as a negative number. This excerpt belongs to a sample that is enriched for strong results.
measurement_label: hERG current change (%, negative = inhibition) at 10uM

Give one value of hERG current change (%, negative = inhibition) at 10uM per listed compound.
1. O=C(c1ccc(Cl)cc1)c1ccc(OCC(=O)N2CCOCC2)cc1
2. CC(C)(C)NC(=O)COC(=O)c1ccc(Cl)cc1O
3. CC(NC(=O)Cc1cccs1)c1ccccc1 (stereo not drawn)

-40.8%
18.8%
24.5%

Give one value of hERG current change (%, negative = inhibition) at 10uM per listed compound.
1. Cc1cc(C(=O)OCC(=O)N2CCCC2)c2ccccc2n1
2. COc1ccccc1CN1CC(=O)N2CSC[C@H]2C1=O
3. O=C(c1ccc2ccccc2n1)N1CCN(c2ccccc2)CC1
4. CCCCc1cc(=O)oc2cc(OCC(=O)NC3CCN(Cc4ccccc4)CC3)ccc12
5. CCCCc1cc(=O)oc2cc(OCC(=O)N[C@@H](Cc3ccccc3)C(=O)O)ccc12
6. Cl.OC(CN1CC=C(/C=C/c2ccc(Br)cc2)CC1)c1ccccc1 (stereo not drawn)
7. CC1(C)NC(C)(C)c2nonc2/C1=N\O

1. -9.04%
2. 10.3%
3. -3.81%
4. -61.1%
5. 6.13%
6. -2.33%
7. -1.78%

Give one value of hERG current change (%, negative = inhibition) at 10uM per listed compound.
1. CC(C)(C)NC(=O)C(c1ccc(F)cc1)N(Cc1ccccc1Cl)C(=O)c1ccn[nH]1 (stereo not drawn)
2. O=C(COc1ccc(Cl)cc1)NC1CCSC1=O (stereo not drawn)
3. O=C(COc1ccccc1)NC1CCSc2ccccc21 (stereo not drawn)
4. O=C(c1ccc2ccccc2n1)N1CCN(c2ccccc2Cl)CC1
5. COP(=O)(OC)c1nc(-c2ccc(C)cc2)oc1N1CCCCC1
6. COc1ccccc1N1CCN(C(=O)CN(c2ccc(C)c(C)c2)S(C)(=O)=O)CC1

1: 25.6%; 2: -16.8%; 3: 0.0355%; 4: -64.8%; 5: -10.2%; 6: -6.02%
